- protocol.description: Cytotoxicity against Mus musculus BALB/c (mouse) splenocytes assessed as decrease in [3H]-thymidine incorporation after 24 hr by beta-radiation counting analysis
- Assay type: cell-based, Splenocyte
- condition.set: read-out: MNCC
reported.property: MNTC at 24 h (µg/mL)
Answers are plain numbers, in µg/mL.

In [3]: df
Out[3]:
                                   molecule  value_reported
0  COc1ccc(C2C(c3ccc(C)cc3)=NOC23SCc2ccccc2C3=O)cc1 (configuration not stated)               5
1  Cc1ccc(C2C(c3ccc([N+](=O)[O-])cc3)=NOC23SCc2ccccc2C3=O)cc1 (configuration not stated)              50
2  Cc1ccc(C2=NOC3(SCc4ccccc4C3=O)C2c2ccc(C)cc2)cc1 (configuration not stated)              50

Below are some molecules; for each one, tell me its MNTC at 24 h.
1. O=C1c2ccccc2CSC12ON=C(c1ccc(Cl)cc1)C2c1ccc([N+](=O)[O-])cc1 (configuration not stated)
2. COc1ccc(C2=NOC3(SCc4ccccc4C3=O)C2c2ccc(C)cc2)cc1 (configuration not stated)
3. COc1ccc(C2=NOC3(SCc4ccccc4C3=O)C2c2ccc(OC)cc2)cc1 (configuration not stated)

[reply]
1: 5; 2: 10; 3: 50
